# target-desc: Neuropeptide Y receptor type 5 (Homo sapiens, UniProt Q15761)
# Sequence (Q15761 whole entry): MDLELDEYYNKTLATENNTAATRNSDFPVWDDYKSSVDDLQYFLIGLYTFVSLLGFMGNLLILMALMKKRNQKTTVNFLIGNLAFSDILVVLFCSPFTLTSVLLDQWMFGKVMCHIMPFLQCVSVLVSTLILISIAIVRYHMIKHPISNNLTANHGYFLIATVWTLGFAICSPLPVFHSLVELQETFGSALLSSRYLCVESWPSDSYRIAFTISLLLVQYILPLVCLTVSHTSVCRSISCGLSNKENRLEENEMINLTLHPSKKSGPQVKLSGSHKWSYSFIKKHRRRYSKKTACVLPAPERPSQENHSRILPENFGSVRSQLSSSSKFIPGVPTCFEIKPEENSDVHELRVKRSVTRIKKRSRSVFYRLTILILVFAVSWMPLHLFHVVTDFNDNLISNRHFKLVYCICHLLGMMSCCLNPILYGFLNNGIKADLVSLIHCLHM
# method-description: Displacement of [125I]PYY from human recombinant neuropeptide Y5 receptor expressed in thymidine kinase deficient […]
Exercise: state measured pKi for each of the molecules provided.
// pKi: -log10(molar conc.)

Problem: Annotate the molecule COc1ccc2c(c1)C(C1=C(O)CC(C)(C)CC1=O)C1=C(CC(C)(C)CC1=O)O2 (centres undefined) with its measured pKi.
Result: 6.23

Problem: Annotate the molecule CCC1(CC)CC(=O)C(C2C3=C(CC(CC)(CC)CC3=O)Oc3ccccc32)=C(O)C1 (centres undefined) with its measured pKi.
Result: 7.70

Problem: Annotate the molecule CCOc1ccc2c(c1)OC1=C(C(=O)CC(C)(C)C1)C2C1=C(O)CC(C)(C)CC1=O (centres undefined) with its measured pKi.
Result: 6.08

Problem: Annotate the molecule CC1(C)CC(=O)C(C2C3=C(CC(C)(C)CC3=O)Oc3ccc(F)cc32)=C(O)C1 (centres undefined) with its measured pKi.
Result: 7.09

Problem: Annotate the molecule O=C1CC2(CCCC2)CC(O)=C1C1C2=C(CC3(CCCC3)CC2=O)Oc2ccccc21 (centres undefined) with its measured pKi.
Result: 7.77

Problem: Annotate the molecule CC1CC(=O)C(C2C3=C(CC(C)CC3=O)Oc3ccccc32)=C(O)C1 (centres undefined) with its measured pKi.
Result: 6.71

Problem: Annotate the molecule COc1cccc2c1OC1=C(C(=O)CC(C)(C)C1)C2C1=C(O)CC(C)(C)CC1=O (centres undefined) with its measured pKi.
Result: 5.66

Problem: Annotate the molecule CC1(C)CC(=O)C(C2C3=C(CC(C)(C)CC3=O)Oc3ccc(Cl)cc32)=C(O)C1 (centres undefined) with its measured pKi.
Result: 6.71

----------
# target-desc: Neuropeptide Y receptor type 5 (Homo sapiens, UniProt Q15761)
# method-description: Displacement of [125I]PYY from human recombinant neuropeptide Y5 receptor expressed in thymidine kinase deficient […]
Labelling field: enter Satisfied if recorded Ki is less than 0.04 µM. Enter Not satisfied if it equals or exceeds that cut-off.

Problem: State whether 0.04 µM exceeds Ki recorded for COc1cccc2c1C(C1=C(O)CC(C)(C)CC1=O)C1=C(CC(C)(C)CC1=O)O2 (centres undefined) .
Result: Not satisfied

Problem: State whether 0.04 µM exceeds Ki recorded for Cc1ccc2c(c1)OC1=C(C(=O)CC(C)(C)C1)C2C1=C(O)CC(C)(C)CC1=O (centres undefined) .
Result: Satisfied

Problem: State whether 0.04 µM exceeds Ki recorded for CC1(C)CC(=O)C(C2C3=C(CC(C)(C)CC3=O)Oc3ccccc32)=C(O)C1 (racemic) .
Result: Satisfied

Problem: State whether 0.04 µM exceeds Ki recorded for O=C1CC2(CCC2)CC(O)=C1C1C2=C(CC3(CCC3)CC2=O)Oc2ccccc21 (centres undefined) .
Result: Satisfied

Problem: State whether 0.04 µM exceeds Ki recorded for CC1(C)CC(=O)C(C2C3=C(CC(C)(C)CC3=O)Oc3cc(Br)ccc32)=C(O)C1 (centres undefined) .
Result: Satisfied

Problem: State whether 0.04 µM exceeds Ki recorded for CC1(C)CC(=O)C([C@H]2C3=C(CC(C)(C)CC3=O)Oc3ccccc32)=C(O)C1 .
Result: Satisfied

Problem: State whether 0.04 µM exceeds Ki recorded for O=C1CCCC(O)=C1C1C2=C(CCCC2=O)Oc2ccccc21 (centres undefined) .
Result: Not satisfied

Problem: State whether 0.04 µM exceeds Ki recorded for O=C1CC2(CCCCC2)CC(O)=C1C1C2=C(CC3(CCCCC3)CC2=O)Oc2ccccc21 (centres undefined) .
Result: Satisfied

Problem: State whether 0.04 µM exceeds Ki recorded for CC1(C)CC(=O)C(C2C3=C(CC(C)(C)CC3=O)Oc3cc(F)ccc32)=C(O)C1 (centres undefined) .
Result: Satisfied

Problem: State whether 0.04 µM exceeds Ki recorded for CC1(C)CC(=O)C(C2C3=C(CC(C)(C)CC3=O)Oc3cc(Cl)ccc32)=C(O)C1 (centres undefined) .
Result: Satisfied

Problem: State whether 0.04 µM exceeds Ki recorded for CC1(C)CC(=O)C(C2C3=C(CC(C)(C)CC3=O)Oc3c(F)cccc32)=C(O)C1 (centres undefined) .
Result: Satisfied

Problem: State whether 0.04 µM exceeds Ki recorded for CC1(C)CC(=O)C(C2C3=C(CC(C)(C)CC3=O)Oc3c(Cl)cccc32)=C(O)C1 (centres undefined) .
Result: Not satisfied

Problem: State whether 0.04 µM exceeds Ki recorded for COc1ccc2c(c1)OC1=C(C(=O)CC(C)(C)C1)C2C1=C(O)CC(C)(C)CC1=O (centres undefined) .
Result: Not satisfied

----------
Exercise: state measured Cmax for each of the compounds provided.
# method-description: Cmax in Sprague-Dawley rat at 10 mg/kg, po
# Type: ADME, organism-based
# Parameters: dose 10 mg/kg, route oral
# test-context: in vivo
Write it as a number; the unit nM goes unstated.

Problem: Annotate the compound CC1(C)CC(=O)C([C@H]2C3=C(CC(C)(C)CC3=O)Oc3ccccc32)=C(O)C1 with its measured Cmax.
Result: 2500

Problem: Annotate the compound CC1(C)CC(=O)C(C2C3=C(CC(C)(C)CC3=O)Oc3ccccc32)=C(O)C1 (racemic) with its measured Cmax.
Result: 2400

----------
# target-desc: Neuropeptide Y receptor type 1 (Homo sapiens, UniProt P25929)
# Sequence (P25929 whole entry): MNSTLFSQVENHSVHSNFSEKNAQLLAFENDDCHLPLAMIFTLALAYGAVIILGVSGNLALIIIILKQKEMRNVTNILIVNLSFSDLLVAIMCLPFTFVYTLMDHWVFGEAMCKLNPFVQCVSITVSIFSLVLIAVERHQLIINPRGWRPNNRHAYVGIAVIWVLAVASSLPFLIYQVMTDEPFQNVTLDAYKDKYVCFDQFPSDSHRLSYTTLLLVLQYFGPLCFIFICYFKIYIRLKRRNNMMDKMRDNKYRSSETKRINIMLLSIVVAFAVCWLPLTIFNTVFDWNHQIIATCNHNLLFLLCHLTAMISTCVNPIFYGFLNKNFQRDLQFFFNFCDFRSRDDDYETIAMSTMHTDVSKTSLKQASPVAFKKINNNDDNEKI
pIC50: −log10 of the molar value.
measured-parameter: pIC50

Problem: Annotate the compound CC1(C)CC(=O)C(C2C3=C(CC(C)(C)CC3=O)Oc3ccccc32)=C(O)C1 (racemic) with its measured pIC50.
Result: < 5.00

----------
# target-desc: Neuropeptide Y receptor type 5 (Homo sapiens)
# method-description: Antagonist activity at human recombinant neuropeptide Y5 receptor expressed in CHO cells coexpressing Gqi5 assessed as inhibition of neuropeptide Y-induced increase in intracellular calcium concentration
# Format: functional, cell-based
measured-parameter: pIC50
// pIC50: -log10(molar conc.)

Problem: Annotate the molecule O=C1CC2(CCC2)CC(O)=C1C1C2=C(CC3(CCC3)CC2=O)Oc2ccccc21 (configuration not stated) with its measured pIC50.
Result: 7.35

Problem: Annotate the molecule CC1(C)CC(=O)C(C2C3=C(CC(C)(C)CC3=O)Oc3cc(Br)ccc32)=C(O)C1 (configuration not stated) with its measured pIC50.
Result: 7.09

Problem: Annotate the molecule CC1(C)CC(=O)C([C@@H]2C3=C(CC(C)(C)CC3=O)Oc3ccccc32)=C(O)C1 with its measured pIC50.
Result: 6.46

Problem: Annotate the molecule O=C1CC2(CCCC2)CC(O)=C1C1C2=C(CC3(CCCC3)CC2=O)Oc2ccccc21 (configuration not stated) with its measured pIC50.
Result: 7.24

Problem: Annotate the molecule CC1(C)CC(=O)C(C2C3=C(CC(C)(C)CC3=O)Oc3c(F)cccc32)=C(O)C1 (configuration not stated) with its measured pIC50.
Result: 7.14

Problem: Annotate the molecule CC1(C)CC(=O)C(C2C3=C(CC(C)(C)CC3=O)Oc3ccccc32)=C(O)C1 (racemic) with its measured pIC50.
Result: 7.21

Problem: Annotate the molecule CCC1(CC)CC(=O)C(C2C3=C(CC(CC)(CC)CC3=O)Oc3ccccc32)=C(O)C1 (configuration not stated) with its measured pIC50.
Result: 7.05

Problem: Annotate the molecule Cc1ccc2c(c1)OC1=C(C(=O)CC(C)(C)C1)C2C1=C(O)CC(C)(C)CC1=O (configuration not stated) with its measured pIC50.
Result: 6.95

Problem: Annotate the molecule O=C1CC2(CCCCC2)CC(O)=C1C1C2=C(CC3(CCCCC3)CC2=O)Oc2ccccc21 (configuration not stated) with its measured pIC50.
Result: 6.96

Problem: Annotate the molecule CC1(C)CC(=O)C(C2C3=C(CC(C)(C)CC3=O)Oc3cc(Cl)ccc32)=C(O)C1 (configuration not stated) with its measured pIC50.
Result: 7.09

Problem: Annotate the molecule CC1(C)CC(=O)C([C@H]2C3=C(CC(C)(C)CC3=O)Oc3ccccc32)=C(O)C1 with its measured pIC50.
Result: 7.47

Problem: Annotate the molecule CC1(C)CC(=O)C(C2C3=C(CC(C)(C)CC3=O)Oc3cc(F)ccc32)=C(O)C1 (configuration not stated) with its measured pIC50.
Result: 7.20

----------
Sequence of the target: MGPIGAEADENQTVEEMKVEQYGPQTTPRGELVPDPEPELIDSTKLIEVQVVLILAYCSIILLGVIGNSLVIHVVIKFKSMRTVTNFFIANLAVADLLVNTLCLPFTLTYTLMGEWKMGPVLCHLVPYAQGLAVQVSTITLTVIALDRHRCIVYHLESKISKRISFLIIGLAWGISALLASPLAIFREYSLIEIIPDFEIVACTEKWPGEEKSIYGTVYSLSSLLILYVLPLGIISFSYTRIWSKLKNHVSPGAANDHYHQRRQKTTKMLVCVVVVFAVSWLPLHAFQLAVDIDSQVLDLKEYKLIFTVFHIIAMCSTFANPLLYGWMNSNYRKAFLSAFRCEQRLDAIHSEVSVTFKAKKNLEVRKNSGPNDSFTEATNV
pIC50: −log10 of the molar value.
measured-parameter: pIC50

Problem: Annotate the compound CC1(C)CC(=O)C(C2C3=C(CC(C)(C)CC3=O)Oc3ccccc32)=C(O)C1 (racemic) with its measured pIC50.
Result: < 5.00
